Test system: Ramos
test-summary: Cytotoxicity assay (cell counting)
Assay type: cell-based
condition-label: Homo sapiens, Burkitt Lymphoma, 72 hours incubation
readout-label: pIC50
Give bare numbers, as −log10 of the molar value.

Name the recorded pIC50 for O=C(NNc1nc2cc(F)ccc2n2cccc12)c1cnccn1 [NVX-412] .
6.77

----------
Tested on: K562
test-summary: Cytotoxicity assay (cell counting)
Assay type: cell-based
condition-label: Homo sapiens; K562, CML; 72 hours incubation
readout-label: IC50 (nM)
Give bare numbers, in nM.

Can you look up IC50 on K562 for O=C(NNc1nc2cc(F)ccc2n2cccc12)c1cnccn1 [NVX-412] ?
540

----------
Tested on: Hs578T
test-summary: Cytotoxicity assay (cell counting)
Format: cell-based
condition-label: Homo sapiens, Hs-578T, breast carcinoma, 72 hours incubation
readout-label: pIC50
Numbers only, as −log10 of the molar value.

Name the recorded pIC50 for O=C(NNc1nc2cc(F)ccc2n2cccc12)c1cnccn1 [NVX-412] .
6.87

----------
System: Colon Cancer cell lines
test-summary: NCI-60 DTP human tumor cell line screen (sulphorhodamine B)
Assay type: cell-based
condition-label: 7 cell lines, 48 hours incubation
readout-label: IC50
Write the numeric value and follow it with the unit.

Name the recorded IC50 for O=C(NNc1nc2cc(F)ccc2n2cccc12)c1cnccn1 .
169 nM

----------
Test system: GL-1
test-summary: Cytotoxicity assay (cell counting)
Type: cell-based
condition-label: Canis lupus familiaris; GL-1, canine B-cell leukemia; 72 hours incubation
readout-label: pIC50
Give bare numbers, as −log10 of the molar value.

Can you look up pIC50 on GL-1 for O=C(NNc1nc2cc(F)ccc2n2cccc12)c1cnccn1 ?
6.98

----------
System: Raji
test-summary: Cytotoxicity assay (cell counting)
Assay type: cell-based
condition-label: Homo sapiens, Burkitt lymphoma, 72 hours incubation
readout-label: pIC50
Give bare numbers, as −log10 of the molar value.

Name the recorded pIC50 for O=C(NNc1nc2cc(F)ccc2n2cccc12)c1cnccn1 .
7.22

----------
System: MCF-7
test-summary: Cytotoxicity assay (cell counting)
Assay type: cell-based
condition-label: Homo sapiens, MCF7; MCF-7, breast adenocarcinoma; 72 hours incubation
readout-label: IC50 (nM)
Give bare numbers, in nM.

Name the recorded IC50 for O=C(NNc1nc2cc(F)ccc2n2cccc12)c1cnccn1 .
150

----------
Tested on: HCT116
test-summary: Cytotoxicity assay (cell counting)
Format: cell-based, Human
condition-label: Homo sapiens, HCT-116; HCT116, colon carcinoma; 72 hours incubation
readout-label: IC50
Write the numeric value and follow it with the unit.

Name the recorded IC50 for O=C(NNc1nc2cc(F)ccc2n2cccc12)c1cnccn1 .
150 nM

----------
Tested on: RKO
test-summary: Cytotoxicity assay (cell counting)
Format: cell-based
condition-label: Homo sapiens, colon carcinoma, 72 hours incubation
readout-label: IC50
Write the numeric value and follow it with the unit.

Name the recorded IC50 for O=C(NNc1nc2cc(F)ccc2n2cccc12)c1cnccn1 .
150 nM

----------
Tested on: HT-29
test-summary: Cytotoxicity assay (cell counting)
Assay type: cell-based, Human
condition-label: Homo sapiens; HT-29, colon adenocarcinoma; 72 hours incubation
readout-label: pIC50
Give bare numbers, as −log10 of the molar value.

Can you look up pIC50 on HT-29 for O=C(NNc1nc2cc(F)ccc2n2cccc12)c1cnccn1 ?
6.52

----------
System: KG-1a
test-summary: Cytotoxicity assay (cell counting)
Assay type: cell-based
condition-label: Homo sapiens, AML, 72 hours incubation
readout-label: pIC50
Numbers only, as −log10 of the molar value.

Name the recorded pIC50 for O=C(NNc1nc2cc(F)ccc2n2cccc12)c1cnccn1 .
6.84
